Measured inhibition of corepressor binding of individual entries
Target: Photoreceptor-specific nuclear receptor (Homo sapiens) (UniProt Q9Y5X4)
Sequence (Q9Y5X4 whole entry, looked up, the tested form may be a part): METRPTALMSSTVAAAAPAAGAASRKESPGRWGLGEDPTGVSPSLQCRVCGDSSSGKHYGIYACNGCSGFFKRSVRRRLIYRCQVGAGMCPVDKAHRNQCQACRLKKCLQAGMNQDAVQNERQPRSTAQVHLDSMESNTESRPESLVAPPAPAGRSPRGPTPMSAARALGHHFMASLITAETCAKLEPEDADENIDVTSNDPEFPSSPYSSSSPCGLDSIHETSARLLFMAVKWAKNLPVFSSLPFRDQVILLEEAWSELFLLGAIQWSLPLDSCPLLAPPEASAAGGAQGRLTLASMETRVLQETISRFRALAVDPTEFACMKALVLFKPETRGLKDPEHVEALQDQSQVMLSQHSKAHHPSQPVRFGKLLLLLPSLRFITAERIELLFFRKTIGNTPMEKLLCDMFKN
Assay: NCOR release from NR2E3 in cells – cell-based, luminescence, CHO-S, Gal4-NCOR/VP16-NR2E3, primary screen (AID 602229);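 note: 0% = DMSO with NR2E3 transfected cells and 100% = cells lacking NR2E3 construct; higher means lower luciferase signal from less NR2E3 corepressor binding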
Details: CHO-S Gal4-NCOR/VP16-NR2E3 two-hybrid, luciferase; at 3.98 µM; active compounds read high
About 1,300 (0.36%) of roughly 360,000 compounds were called active. The entries come from a sample that favours actives as a whole.
Endpoint name: inhibition of corepressor binding (%)

INSERT INTO measurements (compound, unit_text, endpoint_value) VALUES
  ('Cc1[nH]n(-c2cccc(Cl)c2)c(=O)c1-c1ccc(Cl)cc1', '%', 85),
  ('CCOC(=O)C1CCN(S(=O)(=O)c2c(C)noc2C)CC1', '%', -11.3),
  ('FC(F)(F)c1nnc2c3ccccc3c(Cl)nn12', '%', -2.37),
  ('COc1ccc(-n2nc(C(=O)Nc3cc(OC)c(OC)c(OC)c3)c3ccccc3c2=O)c(OC)c1', '%', -8.33),
  ('CC(C(=O)N1CCOCC1)N1c2cccc3cccc(c23)S1(=O)=O (stereo not drawn)', '%', -0.03),
  ('CCCc1cc(=O)n2[nH]c(C)c(-c3ccc(Cl)cc3)c2n1', '%', 43.4),
  ('COc1ccc(Nc2ncnc3ccc(Br)cc23)c(OC)c1', '%', 85.3),
  ('Cc1ccc(C(=O)OC2=CC(=O)CC(C)(C)C2)cc1', '%', -13.1),
  ('CCN(CC)C(=O)CSc1nnc(CNc2ccc(F)cc2)n1Cc1ccco1', '%', -4.24),
  ('Cc1nc([N+](=O)[O-])c(NCCCO)n1Cc1ccccc1', '%', -10.6),
  ('COc1ccc(S(=O)(=O)N2CCc3ccccc32)cc1C(=O)Nc1cc(S(C)(=O)=O)ccc1Cl', '%', -23.6),
  ('Cc1cc(C)n(CCC(=O)N2CCN(S(=O)(=O)c3ccc(C)c(C)c3)CC2)n1', '%', 3.36),
  ('Cc1ccc(S(=O)(=O)N2CCN(C(=O)COC(=O)CNC(=O)c3ccc(C(C)(C)C)cc3)CC2)c(C)c1', '%', 1.29),
  ('O=C(OC12CC3CC(CC(C3)C1)C2)c1ccc(NCc2cc(O)ccc2O)cc1', '%', 91.5),
  ('O=C(CCc1ccc(S(=O)(=O)NC2CCCCC2)cc1)NCc1ccccc1', '%', 9.81),
  ('CCCOC(=O)c1[nH]c2c(c1C)C(=O)CC(c1cccs1)C2 (stereo not drawn)', '%', 2.46),
  ('CCCOC(=O)c1[nH]c2c(c1C)C(=O)CC(c1cc(OC)c(OC)c(OC)c1)C2 (stereo not drawn)', '%', 70.4),
  ('COc1cc(OC)cc(C2=Cc3ccccc3C(CC(=O)c3ccco3)N2c2ccc(-c3cnc(OC)nc3)cc2)c1 (stereo not drawn)', '%', -30.9);
